Test system: Salmonella typhimurium TA 1538
MEASURED PROPERTY: Result on TA 1538

Nc1ccc(-c2ccccc2)cc1 | +
CN(C)P(=O)(N(C)C)N(C)C [Hexamethylphosphoramide] | -
CN(C)c1ccc(N=Nc2ccccc2)cc1 | +
C=CCc1ccc2c(c1)OCO2 | -
Nc1ccc2cc3ccccc3cc2c1 | +
NN [Hydrazine] | -
CCOS(C)(=O)=O [Ethyl methanesulphonate] | +
CN(C)N=O | -
O=C1CCO1 | +

// next entry
Recorded Result on TA 1538 (molecule CCOC(N)=O ): -

###

Tested on: Salmonella typhimurium (TA 1535, TA 1538, TA 98 and TA 100)
MEASURED PROPERTY: Result in the present study

CN(C)c1ccc(N=Nc2ccccc2)cc1 [4-Dimethylaminoazobenzene] | positive
C=CCc1ccc2c(c1)OCO2 [Safrole] | positive
CCN(CC)N=O [Diethylnitrosamine] | positive
